Experiment: NCI Yeast Anticancer Drug Screen. Data for the rad50 strain (AID 155)
Details: S. cerevisiae rad50 strain growth inhibition; at 5.0 µM (retest, dose inferred, filed as 0.5); active compounds read high
Compounds without any hit were thinned out: in the full panel of roughly 79,000, 15% have a hit.
Hi, to clarify the labels: YES covers growth inhibition from 10% upward, NO covers anything below 10%.

| Compound | Assigned Class |
| --- | --- |
| CCCCCCCCCCCCCCCCCCN(C)CC(COP(=O)([O-])OCC[N+](C)(C)C)OC (stereo unspecified) | YES |
| CN(Cc1cnc2nc(N)nc(N)c2n1)c1ccc(C(=O)N[C@@H](CCC(=O)O)C(=O)O)cc1 | NO |
| O=C(c1ccc(Cl)cc1)C1OC12C(=O)Nc1ccccc12 (stereo unspecified) | YES |
| C[C@H](CCC(=O)NN)[C@H]1CC[C@H]2[C@@H]3CC[C@@H]4C[C@H](O)CC[C@]4(C)[C@H]3CC[C@]12C | YES |
| O=C1C2C=CC1C1C(=O)OC(=O)C21 (stereo unspecified) | YES |
| CC(O)C(O)C(O)C(/C=N\Nc1ccccc1)=N/Nc1ccccc1 (stereo unspecified) | YES |
| CCCCCCCCCCCCCCCCCCOCC(O)COP(=O)(O)OCC1OC(n2cc(F)c(=O)[nH]c2=O)CC1O (stereo unspecified) | YES |
| CC(=O)[O][Bi]([c]1ccccc1)[c]1ccccc1 | YES |
| CN1c2ccc(Cl)cc2C(=O)NC1c1ccc([N+](=O)[O-])s1 (stereo unspecified) | NO |
| CN(C)CCOc1ccc2c(c1)C/C(=C/c1ncc([N+](=O)[O-])n1C)C2=O | YES |
| O=Nc1c(NO)ccc2nn(-c3ccccc3)nc12 | YES |
| COc1cc(C2SCC(=O)N2c2nnc(C(F)(F)F)s2)cc(OC)c1OC (stereo unspecified) | NO |
| CC(C)/C(Cl)=N\OC(=O)Nc1cccc(Cl)c1 | NO |
| CCCCCCCCCCCC(=O)N(C)C | YES |
| CC1(Cl)CC(O)C2(CC1Br)C1(C)OC1C1OC1(Br)C2(C)C (stereo unspecified) | YES |
| COc1ccc2nc3cccc([N+](=O)[O-])c3c(NCCN(CCO)CCO)c2c1 | YES |
| COc1ccccc1N=NC(C(=O)c1ccccc1)C(=O)c1ccccc1 | YES |
| O=C1OC(=O)C2CCCC3CCCC1C32 (stereo unspecified) | NO |
| COc1cc(CC2CC(c3ccc4c(c3)OCO4)OC2=O)cc(OC)c1OC (stereo unspecified) | NO |
| CC(=O)OCCOCNC(=S)N/N=C(\C)c1cnccn1 | NO |
| NC(N)=N/N=C\c1c2ccccc2cc2ccccc12 | YES |
| O=C(COC(=O)c1cc(O)c(O)c(O)c1)c1ccc(-c2ccccc2)cc1 | NO |
| C(=C\c1ccccc1)/COc1ccccc1C(N1CCOCC1)n1nc2ccccc2n1 (stereo unspecified) | NO |
| O=C(c1cc(Br)ccc1O)c1cc(Br)ccc1O | NO |
| CCN(CC)CC[n+]1ccc2c(C)c3[nH]c4ccc(O)cc4c3c(C)c2c1 | YES |
| CC(Br)C(=O)c1ccc2cc(Br)c3ccccc3c2c1 (stereo unspecified) | NO |
| COc1cc(/C=C2\CCc3ccccc3C2=O)cc(OC)c1OC | YES |
| CC(C)/C(Cl)=N\OC(=O)Nc1ccc(F)cc1 | YES |
| FC(F)(F)c1nc2nc(Cl)c(Cl)nc2n1CCCN1CCOCC1 | YES |
| CCCC/C=C/C(CC)(C(=O)OCC)C(=O)OCC | NO |
